Test System: Type-1 angiotensin II receptor (Homo sapiens, UniProt P30556); further: assay procedure not described here
Sequence (P30556 whole entry): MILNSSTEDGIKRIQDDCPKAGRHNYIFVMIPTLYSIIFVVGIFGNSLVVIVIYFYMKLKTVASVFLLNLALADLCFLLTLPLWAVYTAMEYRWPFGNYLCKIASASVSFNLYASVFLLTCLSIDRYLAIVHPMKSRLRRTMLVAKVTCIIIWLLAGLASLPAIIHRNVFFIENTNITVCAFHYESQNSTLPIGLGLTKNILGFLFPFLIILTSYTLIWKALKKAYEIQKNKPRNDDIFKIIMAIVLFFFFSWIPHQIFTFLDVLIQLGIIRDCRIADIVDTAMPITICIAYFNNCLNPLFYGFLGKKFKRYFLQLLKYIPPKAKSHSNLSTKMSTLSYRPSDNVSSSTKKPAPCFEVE
Measurement Type: AC50

Lookup: Answer with reported AC50 of CCOC(=O)NNc1ccc(N(CC)CC(C)O)nn1 (centres undefined)
Found: > 30 µM

Lookup: Answer with reported AC50 of CNCC[C@H](Oc1cccc2ccccc12)c1cccs1
Found: > 30 µM

Lookup: Answer with reported AC50 of [H]/N=C(\N/C(=N/[H])NCCCCCCNC(=N)NC(=N)Nc1ccc(Cl)cc1)Nc1ccc(Cl)cc1
Found: > 10 µM

Lookup: Answer with reported AC50 of O=C1Nc2ccc(Cl)cc2C(c2ccccc2)=NC1O (centres undefined)
Found: > 30 µM

Lookup: Answer with reported AC50 of Nc1nc2c(c(=O)[nH]1)N(C=O)C(CNc1ccc(C(=O)N[C@@H](CCC(=O)O)C(=O)O)cc1)CN2 (some centres undefined)
Found: > 30 µM

Lookup: Answer with reported AC50 of CCC(C)(Oc1ccc(C2(c3ccc(OC(C)(CC)C(=O)O)cc3)CCCCC2)cc1)C(=O)O (centres undefined) [CLINOFIBRATE]
Found: > 30 µM

Lookup: Answer with reported AC50 of CC(NCCc1ccc(O)cc1)C(O)c1ccc(O)cc1 (centres undefined)
Found: > 30 µM

Lookup: Answer with reported AC50 of CC1(C)C(C=C(Cl)Cl)C1C(=O)OCc1cccc(Oc2ccccc2)c1 (centres undefined)
Found: > 10 µM

Lookup: Answer with reported AC50 of COc1ccc(C(CN(C)C)C2(O)CCCCC2)cc1 (centres undefined)
Found: > 30 µM

----------
Listed below: AC50 values for each entry.
Test System: Type-1 angiotensin II receptor (Homo sapiens, UniProt P30556); further: assay procedure not described here

Solved cases (2 shown):
N#C[C@@H]1CCCN1C(=O)CNC12CC3CC(CC(O)(C3)C1)C2 [VILDAGLIPTIN]    > 30 µM
CC[C@H]1OC(=O)[C@H](C)[C@@H](O[C@H]2C[C@@](C)(OC)[C@@H](O)[C@H](C)O2)[C@H](C)[C@@H](O[C@@H]2O[C@H](C)C[C@H](N(C)C)[C@H]2O)[C@](C)(O)C[C@@H](C)/C(=N\OCOCCOC)[C@H](C)[C@@H](O)[C@]1(C)O [ROXITHROMYCIN]    > 30 µM

Please find the next molecule below.
Lookup: Tell me its AC50 on Type-1 angiotensin II receptor (Homo sapiens, UniProt P30556): COc1ccc(Cc2nccc3cc(OC)c(OC)cc23)cc1OC [PAPAVERINE]
Found: > 30 µM

----------
Quick record: AC50, Cannabinoid receptor 1 (Homo sapiens).

Solved cases (4 shown):
Cc1cccc(N(C)C(=S)Oc2ccc3ccccc3c2)c1 [TOLNAFTATE]    > 10 µM
CCn1cc(C(=O)O)c(=O)c2cc(F)c(N3CCNCC3)nc21    > 10 µM
CCc1oc2ccccc2c1C(=O)c1cc(Br)c(O)c(Br)c1    > 10 µM
O=C1Nc2ccc(Cl)cc2C(c2ccccc2)=NC1O (stereo not given)    > 10 µM

Please find the next compound below.
Lookup: Tell me its AC50 on Cannabinoid receptor 1 (Homo sapiens): CCCCCCNC(=O)n1cc(F)c(=O)[nH]c1=O
Sequence (P21554 whole entry): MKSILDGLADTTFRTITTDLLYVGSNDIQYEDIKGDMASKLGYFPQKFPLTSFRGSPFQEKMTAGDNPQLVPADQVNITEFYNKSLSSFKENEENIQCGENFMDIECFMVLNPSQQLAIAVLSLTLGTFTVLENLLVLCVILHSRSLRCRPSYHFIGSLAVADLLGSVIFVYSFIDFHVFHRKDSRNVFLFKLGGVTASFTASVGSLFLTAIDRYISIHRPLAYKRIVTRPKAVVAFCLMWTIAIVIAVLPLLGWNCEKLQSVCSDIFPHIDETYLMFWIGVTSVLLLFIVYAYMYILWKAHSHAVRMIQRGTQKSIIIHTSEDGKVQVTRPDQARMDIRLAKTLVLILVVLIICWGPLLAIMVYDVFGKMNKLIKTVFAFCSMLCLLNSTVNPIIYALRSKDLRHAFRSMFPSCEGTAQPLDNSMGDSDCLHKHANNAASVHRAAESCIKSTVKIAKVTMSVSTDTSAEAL
Found: > 30 µM

----------
Listed below: AC50 values for each entry.
Test System: Mu-type opioid receptor (Homo sapiens, UniProt P35372); further: assay procedure not described here
Sequence (P35372 whole entry): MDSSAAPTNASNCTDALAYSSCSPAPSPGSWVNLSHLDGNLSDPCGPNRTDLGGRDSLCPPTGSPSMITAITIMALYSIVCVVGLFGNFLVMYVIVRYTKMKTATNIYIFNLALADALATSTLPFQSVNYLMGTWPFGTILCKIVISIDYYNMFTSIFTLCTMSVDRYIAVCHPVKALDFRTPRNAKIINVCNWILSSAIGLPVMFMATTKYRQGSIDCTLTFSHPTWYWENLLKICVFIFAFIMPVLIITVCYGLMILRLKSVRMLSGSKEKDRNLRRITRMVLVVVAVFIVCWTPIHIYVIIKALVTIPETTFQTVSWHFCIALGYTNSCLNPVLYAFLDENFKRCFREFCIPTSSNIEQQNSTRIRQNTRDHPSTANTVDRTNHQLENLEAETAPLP

Solved cases (6 shown):
COc1ccc(/C=C/C(=O)Nc2ccccc2C(=O)O)cc1OC    > 30 µM
COC1=C(OC)C(=O)C(CCCCCCCCCCO)=C(C)C1=O    > 10 µM
C#Cc1cccc(Nc2ncnc3cc(OCCOC)c(OCCOC)cc23)c1    29 µM
Clc1ccc2c(c1)C(c1ccccc1)=NCc1nncn1-2    > 30 µM
O=C(Nc1nc(-c2cc(Cl)cs2)c(N2CCN(C3CCCCC3)CC2)s1)c1cnc(N2CCC(C(=O)O)CC2)c(Cl)c1    > 10 µM
C=CC(N)CCC(=O)O (stereo not given)    > 30 µM

Lookup: Tell me its AC50 on Mu-type opioid receptor (Homo sapiens, UniProt P35372): CC(=O)/N=c1/sc(S(N)(=O)=O)nn1C [METHAZOLAMIDE]
Found: > 30 µM

Lookup: Tell me its AC50 on Mu-type opioid receptor (Homo sapiens, UniProt P35372): NC(=O)CCC/N=C(\c1ccc(Cl)cc1)c1cc(F)ccc1O [PROGABIDE]
Found: > 30 µM

Lookup: Tell me its AC50 on Mu-type opioid receptor (Homo sapiens, UniProt P35372): CN1c2ccccc2C(NCCCCCCC(=O)O)c2ccc(Cl)cc2S1(=O)=O (stereo not given)
Found: > 30 µM

Lookup: Tell me its AC50 on Mu-type opioid receptor (Homo sapiens, UniProt P35372): CCCN(CCC)CCc1cccc2c1CC(=O)N2
Found: 9.67 µM
